- Protocol: Volume of distribution at steady state in Sprague-Dawley rat at 2 mg/kg, iv measured upto 24 hrs by LC-MS/MS analysis
- Format: ADME, organism-based
- Assay Setup: in vivo, read-out: Vdss
Readout Label: Vd (L/kg)
Form entry: value (L/kg) — number only.

Lookup: I have this compound here, CCn1cnc2c(Nc3cccc(NC(=O)C#Cc4ccc(C)cc4)c3)nc(N[C@H]3CC[C@H](O)CC3)nc21 , and I need its recorded Vd.
Found: 3.8

====

- Protocol: Cytotoxicity against human erythrocytes assessed as cell viability at 0.1 uM after 3 days alamar blue assay relative to control
- Assay type: cell-based, Erythrocyte
- Assay Setup: time 3 day, read-out: Activity
Readout Label: viability at 72 h, 0.1 µM (%)
Form entry: value (%) — number only.

Lookup: I have this compound here, CCn1cnc2c(Nc3cccc(NC(=O)C#Cc4ccc(C)cc4)c3)nc(N[C@H]3CC[C@H](O)CC3)nc21 , and I need its recorded viability at 72 h, 0.1 µM.
Found: 61

====

- Protocol: Clearance in Sprague-Dawley rat at 5 mg/kg, iv measured upto 24 hrs by LC-MS/MS analysis
- Assay type: ADME, organism-based
- Assay Setup: in vivo
Readout Label: clearance (mL/min/kg)
Form entry: value (mL/min/kg) — number only.

Lookup: I have this molecule here, CCN1CCN(c2nc(Nc3cccc(NC(=O)C#Cc4ccc(C)cc4)c3)c3ncn(CC)c3n2)CC1.Cl.Cl , and I need its recorded clearance.
Found: 8.2

====

- Protocol: Clearance in Sprague-Dawley rat at 2 mg/kg, iv measured upto 24 hrs by LC-MS/MS analysis
- Type: ADME, organism-based
- Assay Setup: in vivo
Readout Label: clearance (mL/min/kg)
Form entry: value (mL/min/kg) — number only.

Lookup: I have this compound here, CCn1cnc2c(Nc3cccc(NC(=O)C#Cc4ccc(C)cc4)c3)nc(N[C@H]3CC[C@H](O)CC3)nc21 , and I need its recorded clearance.
Found: 60.9

====

- Protocol: Cytotoxicity against human erythrocytes assessed as cell viability at 2 uM after 3 days alamar blue assay relative to control
- Assay type: cell-based, Erythrocyte
- Assay Setup: time 3 day, read-out: Activity
Readout Label: viability at 72 h, 2 µM (%)
Form entry: value (%) — number only.

Lookup: I have this compound here, CCN1CCN(c2nc(Nc3cccc(NC(=O)C#Cc4ccc(C)cc4)c3)c3ncn(CC)c3n2)CC1.Cl.Cl , and I need its recorded viability at 72 h, 2 µM.
Found: 72

====

- Protocol: Cytotoxicity against human erythrocytes assessed as cell viability at 5 uM after 3 days alamar blue assay relative to control
- Type: cell-based, Erythrocyte
- Assay Setup: time 3 day, read-out: Activity
Readout Label: viability at 72 h, 5 µM

Lookup: I have this compound here, CCn1cnc2c(Nc3cccc(NC(=O)C#Cc4ccc(C)cc4)c3)nc(N3CCN(CCF)CC3)nc21.Cl.Cl , and I need its recorded viability at 72 h, 5 µM.
Found: 50%

====

- Protocol: Cytotoxicity against human erythrocytes assessed as cell viability at 1.25 uM after 3 days alamar blue assay relative to control
- Format: cell-based, Erythrocyte
- Assay Setup: time 3 day, read-out: Activity
viability at 72 h, 1.25 µM strictly less than 60% = YES. Otherwise NO.

Compound | Category
CCN1CCN(c2nc(Nc3cccc(NC(=O)[C@@H]4C[C@H]4c4ccccc4)c3)c3ncn(CC)c3n2)CC1 | NO
CCn1cnc2c(Nc3cccc(NC(=O)C#Cc4ccc(C)cc4)c3)nc(N3CCN(CCO)CC3)nc21 | YES
CCn1cnc2c(Nc3cccc(NC(=O)C#Cc4ccc(C)cc4)c3)nc(N3CCC(N(C)C)C3)nc21 (stereo not given) | YES
Cc1ccc(C#CC(=O)Nc2cccc(Nc3nc(N[C@H]4CC[C@H](O)CC4)nc4ccccc34)c2)cc1 | YES

For the next question, use this compound.
Lookup: For this compound, is viability at 72 h, 1.25 µM lower than 60%? CCN1CCN(c2nc(Nc3cccc(NC(=O)/C=C/c4ccccc4)c3)c3ncn(CC)c3n2)CC1
Found: NO

====

- Protocol: Half life in Sprague-Dawley rat at 2 mg/kg, iv measured upto 24 hrs by LC-MS/MS analysis
- Format: ADME, organism-based
- Assay Setup: in vivo
Readout Label: half-life (h)
Form entry: value (h) — number only.

Lookup: I have this molecule here, CCn1cnc2c(Nc3cccc(NC(=O)C#Cc4ccc(C)cc4)c3)nc(N[C@H]3CC[C@H](O)CC3)nc21 , and I need its recorded half-life.
Found: 10.2

====

- Protocol: Cytotoxicity against human erythrocytes assessed as cell viability at 15 uM after 3 days alamar blue assay relative to control
- Type: cell-based, Erythrocyte
- Assay Setup: time 3 day, read-out: Activity
Readout Label: viability at 72 h, 15 µM (%)
Form entry: value (%) — number only.

Lookup: I have this molecule here, CCn1cnc2c(Nc3cccc(NC(=O)C#Cc4ccc(C)cc4)c3)ncnc21 , and I need its recorded viability at 72 h, 15 µM.
Found: 75

====

- Protocol: AUC (0 to infinity) in Sprague-Dawley rat at 20 mg/kg, po measured upto 24 hrs by LC-MS/MS analysis
- Type: ADME, organism-based
- Parameters: route oral, dose 20 mg/kg, time <=24
- Assay Setup: in vivo
Readout Label: AUC(0-inf) (ng·h/mL)
Form entry: value (ng·h/mL) — number only.

Lookup: I have this molecule here, CCN1CCN(c2nc(Nc3cccc(NC(=O)C#Cc4ccc(C)cc4)c3)c3ncn(CC)c3n2)CC1.Cl.Cl , and I need its recorded AUC(0-inf).
Found: 9000

====

- Protocol: AUC (0 to infinity) in Sprague-Dawley rat at 2 mg/kg, iv measured upto 24 hrs by LC-MS/MS analysis
- Type: ADME, organism-based
- Set-up: route intravenous, dose 2 mg/kg, time <=24
- Assay Setup: in vivo
Readout Label: AUC(0-inf) (ng·h/mL)
Form entry: value (ng·h/mL) — number only.

Lookup: I have this compound here, CCn1cnc2c(Nc3cccc(NC(=O)C#Cc4ccc(C)cc4)c3)nc(N[C@H]3CC[C@H](O)CC3)nc21 , and I need its recorded AUC(0-inf).
Found: 610

====

- Protocol: Cytotoxicity against human erythrocytes assessed as cell viability after 3 days alamar blue assay
- Format: cell-based, Erythrocyte
- Assay Setup: time 3 day
Readout Label: CC50 at 72 h (µM)
Form entry: value (µM) — number only.

Molecule | CC50 at 72 h, µM
NC(=O)NO [HYDROXYUREA] | 147

Field: next molecule
Lookup: I have this molecule here, CCCC(=O)[O-].[Na+] [SODIUM BUTYRATE] , and I need its recorded CC50 at 72 h.
Found: 222

====

- Protocol: Cytotoxicity against human erythrocytes assessed as cell viability at 10 uM after 3 days alamar blue assay relative to control
- Assay type: cell-based, Erythrocyte
- Assay Setup: time 3 day, read-out: Activity
The entries below come with measured viability at 72 h, 10 µM values attached.
A complete answer gives the number and then names the unit.

Some solved entries appear below for comparison.
Input Smiles | Readout Label | Measured
Cc1ccc(C#CC(=O)Nc2cccc(Nc3nc(N[C@H]4CC[C@H](O)CC4)nc4scnc34)c2)cc1 | viability at 72 h, 10 µM | 19%
Cc1ccc(C#CC(=O)Nc2cccc(Nc3ncnc4oc(-c5ccccc5)nc34)c2)cc1 | viability at 72 h, 10 µM | 103%

Lookup: I have this compound here, CCN1CCN(c2nc(Nc3cccc(NC(=O)N4CCN(c5ccc(F)cc5)CC4)c3)c3ncn(CC)c3n2)CC1 , and I need its recorded viability at 72 h, 10 µM.
Found: 8%

====

- Protocol: Half life in Sprague-Dawley rat at 20 mg/kg, po measured upto 24 hrs by LC-MS/MS analysis
- Assay type: ADME, organism-based
- Assay Setup: in vivo
Readout Label: half-life (h)
Form entry: value (h) — number only.

Lookup: I have this compound here, CCN1CCN(c2nc(Nc3cccc(NC(=O)C#Cc4ccc(C)cc4)c3)c3ncn(CC)c3n2)CC1.Cl.Cl , and I need its recorded half-life.
Found: 3.8

====

- Protocol: Cytotoxicity against human erythrocytes assessed as cell viability at 0.625 uM after 3 days alamar blue assay relative to control
- Format: cell-based, Erythrocyte
- Assay Setup: time 3 day, read-out: Activity
Readout Label: viability at 72 h, 0.625 µM

Input Smiles | Readout Label | Measured
CCn1cnc2c(Nc3cccc(NC(=O)C#Cc4ccc(C)cc4)c3)nc(N3CCC(N(C)C)CC3)nc21.Cl.Cl | viability at 72 h, 0.625 µM | 75%

Field: next molecule
Lookup: I have this molecule here, CCN1CCN(c2nc(Nc3cccc(C(=O)Nc4ccc(-c5ccccc5)cc4)c3)c3ncn(CC)c3n2)CC1 , and I need its recorded viability at 72 h, 0.625 µM.
Found: 105%
